Biological target: DPAP1 (Plasmodium falciparum, UniProt Q8IIJ9);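 also: 30 min substrate incubation versus DMSO and 10 µM JCP410 controls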
Sequence (Q8IIJ9 whole entry, looked up): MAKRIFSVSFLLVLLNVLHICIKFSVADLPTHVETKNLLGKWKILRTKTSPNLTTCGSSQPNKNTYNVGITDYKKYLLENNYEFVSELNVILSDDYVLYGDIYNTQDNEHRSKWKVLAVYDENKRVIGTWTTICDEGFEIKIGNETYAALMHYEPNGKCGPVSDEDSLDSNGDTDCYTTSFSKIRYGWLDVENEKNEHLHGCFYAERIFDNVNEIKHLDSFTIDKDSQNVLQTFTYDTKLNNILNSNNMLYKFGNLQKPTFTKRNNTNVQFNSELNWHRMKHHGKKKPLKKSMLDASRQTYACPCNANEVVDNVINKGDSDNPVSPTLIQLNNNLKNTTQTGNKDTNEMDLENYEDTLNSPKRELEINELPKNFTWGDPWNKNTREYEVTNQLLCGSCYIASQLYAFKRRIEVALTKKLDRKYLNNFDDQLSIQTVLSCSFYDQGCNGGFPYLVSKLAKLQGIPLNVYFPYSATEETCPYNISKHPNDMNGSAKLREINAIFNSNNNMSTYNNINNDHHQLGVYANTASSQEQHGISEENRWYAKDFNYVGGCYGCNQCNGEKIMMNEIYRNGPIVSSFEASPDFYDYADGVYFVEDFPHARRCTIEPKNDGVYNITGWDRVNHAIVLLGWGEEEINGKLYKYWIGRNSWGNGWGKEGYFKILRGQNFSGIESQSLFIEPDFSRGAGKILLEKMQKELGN
Test: primary screen, percent inhibition; read by cleavage of a fluorogenic dipeptide substrate; higher = more effect of the substance
Set-up: species or system P. falciparum D10 trophozoite lysates; single well
Hit rate of the full screen: of about 110,000 compounds, about 230 (0.21%) showed an effect of 50% or more. The entries come from a sample that favours strong results as a whole.
% Inhibition @ 10 uM values, listed per item
The reply should be a number in %, with the unit left off.

For orientation, consider the following solved cases.
Looking for the measured % Inhibition @ 10 uM of `O=C(c1ccccn1)c1conc1C(=O)c1cccs1` , can you help?
1.82

Looking for the measured % Inhibition @ 10 uM of `COc1cc(CN2CCc3c([nH]c4ccccc34)C2)cc2c1OCO2` , can you help?
-5.11

Looking for the measured % Inhibition @ 10 uM of CN1CSC2=C(C#N)C(c3ccccc3)CC(=O)N2C1 (stereo not drawn) , can you help?
32.9

Looking for the measured % Inhibition @ 10 uM of CC1(C)CC(=O)C2=C(C1)N1C(=C(C#N)C2c2cccnc2)N=C(N)c2c1sc1c2CCCCC1 (stereo not drawn) , can you help?
-2.39

Looking for the measured % Inhibition @ 10 uM of `Cc1cc(/C=C2/SC(=O)N(C(C)C)C2=O)c(C)n1-c1ccncc1` , can you help?
-0.68

New cases:
Looking for the measured % Inhibition @ 10 uM of `CCN1CCc2c(sc3nc(S)nc(N)c23)C1` , can you help?
42.8

Looking for the measured % Inhibition @ 10 uM of `O=C(Cc1nnc(-c2ccc(Br)cc2)o1)NC1CCN(Cc2ccccc2)CC1` , can you help?
2.28

Looking for the measured % Inhibition @ 10 uM of `Cc1cc(C)c2c(-n3cccc3)nn(CC(=O)N3CCCCCC3)c2n1` , can you help?
-3.52

Looking for the measured % Inhibition @ 10 uM of NC(=O)C1CCCN(C2CCc3ccccc3C2)C1 (stereo not drawn) , can you help?
-1.5

Looking for the measured % Inhibition @ 10 uM of `O=C(c1ccccc1)c1conc1C(=O)c1ccc(Br)cc1` , can you help?
4.52

Looking for the measured % Inhibition @ 10 uM of `c1ccc2c(c1)ncn2Cc1nnc2sc(-c3ccc4c(c3)OCCO4)nn12` , can you help?
45

Looking for the measured % Inhibition @ 10 uM of Cc1cccc(Oc2nc3c(C)cccn3c(=O)c2/C=C(\C#N)C(=O)NCC2CCCO2)c1 (stereo not drawn) , can you help?
-9.06

Looking for the measured % Inhibition @ 10 uM of CSc1ccc(C2CC(=O)N3CN(C)CSC3=C2C#N)cc1 (stereo not drawn) , can you help?
75

Looking for the measured % Inhibition @ 10 uM of C=CCOc1ccc(C(=O)C2=C(O)C(=O)N(c3ccccn3)C2c2ccc(F)cc2)cc1 (stereo not drawn) , can you help?
2.86

Looking for the measured % Inhibition @ 10 uM of `CCc1nnc(NC(=O)c2sc3nc(-c4cccs4)cc(C(F)(F)F)c3c2N)s1` , can you help?
0.487

Looking for the measured % Inhibition @ 10 uM of `Fc1ccccc1CSCc1nc2ccccc2[nH]1` , can you help?
-4.6

Looking for the measured % Inhibition @ 10 uM of COc1cccc(CN(C(=O)c2cc3ccccc3oc2=O)C2CCS(=O)(=O)C2)c1 (stereo not drawn) , can you help?
0.366

Looking for the measured % Inhibition @ 10 uM of `O=C(c1cccnc1)c1conc1C(=O)c1ccc(Br)cc1` , can you help?
91.9

Looking for the measured % Inhibition @ 10 uM of `CCOC(=O)N1CCN(c2ccc(/C=C(\C#N)c3nc4ccccc4s3)o2)CC1` , can you help?
4.67

Looking for the measured % Inhibition @ 10 uM of `NC(=O)c1ccc(-n2nnnc2SCc2ccc(C(=O)O)cc2)cc1` , can you help?
3.05

Looking for the measured % Inhibition @ 10 uM of `CCOc1ccc(-c2nn3c(-c4cc(OC)c(OC)c(OC)c4)nnc3s2)cc1` , can you help?
56.2

These entries and their values trace back to paper PMC6919601.
